- ASSAY SUMMARY: Acute and chronic toxicity (LD50) after single i.v. dose in healthy mice
- MEASUREMENT PARAMETERS: mouse, in vivo, iv, death within 14 days, read-out: Mean LD50 ± S.D., acute
ASSAY METRIC: LD50 at 336 h (mg/kg)
Give the quantity in mg/kg, number only.

Entry COc1cccc2c1C(=O)c1c(O)c3c(c(O)c1C2=O)C[C@@](O)(C(=O)CO)C[C@@H]3O[C@H]1C[C@H](N)[C@H](O)[C@H](C)O1 [free ADM, doxorubicin] — recorded LD50 at 336 h = 20
